test system: Wnt5a (protein binding on small-molecule microarray); test: Wnt5a binders on small-molecule microarray, primary screen, biophysical, 635/667 nm fluorescence (AID 1142); settings: 635 nm fluorescence, higher = more signal;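 also: fluorescence read at 667 nm with signal to noise per printed feature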
Measurement Label: composite z-score
Lab note: record just the number, no unit beside it.

Solved cases (2 shown):
CC(C)=CCCC(C)=CC(O)C1C=CC2C(=O)N(c3ccccc3)C(=O)C2N1Nc1ccccc1F (centres undefined) ... 0.151
C=C(C(=O)CC[C@@H](OC(=O)c1ccccc1-c1ccccc1C(=O)O)c1ccccc1OCCO)C(C)C ... 0.618

Lookup: composite z-score / Wnt5a (protein binding on small-molecule microarray) / C=C(COC)/C(=C/C[C@@H](OC(C)=O)c1ccc(CO)o1)c1cc(C(=O)OC)ccc1OC -0.0561

Lookup: composite z-score / Wnt5a (protein binding on small-molecule microarray) / COCCOC(=O)N1C(=O)[C@@]2(c3cc(C#CC4(O)CCCCCC4)ccc31)[C@H](C(=O)N1CCN(c3ncccn3)CC1)[C@H]1C(=O)O[C@H](c3ccccc3)[C@H](c3ccccc3)N1[C@@H]2c1ccccc1OCCO 0.329

# returns recorded composite z-score (system: Wnt5a (protein binding on small-molecule microarray)) for CCCCC(=C=CC[C@H](O)c1ccc(OCCO)cc1)C[C@H](O)COCc1ccccc1 -0.0866
